Test system: A549/ATCC NSCLC
Assay: NCI-60 one-dose screen, 48 h (100 = growth as untreated, 0 = no growth, -100 = all killed)
Details: 10 µM unless noted
This is part of a sample that, as a whole, favours compounds with a hit. Of some 83,000 tested, about 20% had one in any assay.
Below, each of the compounds is paired with its reported growth value.
Your answer is read as %, so omit the unit and give the number.

Below: 8 compounds and their reported growth.
1) CCN(CC)S(=O)(=O)c1ccc2[nH]c(=O)cc(C(=O)Nc3ccc(OC)cc3OC)c2c1    110
2) Cc1ccc(Nc2ncnc3c2sc2ncccc23)cc1    98.2
3) COc1cc(CCn2nnc3c(Nc4ccc(N5CCOCC5)cc4)ncnc32)cc(OC)c1    98.1
4) Cc1sc(N=Nc2ccc(N(C)C)cc2)[n+]([O-])c1C    100
5) Cc1cc(Nc2nc(-c3ccncc3)nc3ccccc23)n[nH]1    41.9
6) CCCC1OC(c2ccc(C(C)C)cc2)OCC1CC (stereo unspecified)    75.8
7) O=C(CCC(=O)OC1CCCC1)OC1CCCC1    91.4
8) COc1ccc(-n2c(C)cc(-c3ccccc3)c2C)cc1    40.7

Ask: growth for COc1ccc(Cn2c(SC)nc(=O)n(Cc3ccc(Cl)cc3)c2=O)cc1 ?
Reply: 87.9

Ask: Likewise for COc1cc(CNC(=O)CSc2nc3ccccc3c(=O)n2Cc2cc(OC)c(OC)c(OC)c2)cc(OC)c1OC ?
Reply: 97

Ask: Okay, and O=c1[nH]c2ccccc2cc1-c1nnc(Cc2ccccc2)o1 ?
Reply: 83.3
